Test system: redroot pigweed
ASSAY_METHOD_TEXT: Test A pre-/postemergence herbicide test
Format: in vivo, Amaranthus retroflexus
MEASUREMENT_PARAMETERS: Preemergence, 2000 g ai/ha; 0 to 100 scale, 0 no effect, 100 complete control
Source text: […] Plants ranged in height from 2 to 10 cm and were in the one- to two-leaf stage for the postemergence treatment. Treated plants and untreated controls were maintained in a greenhouse for approximately ten days, after which time all treated plants were compared to untreated controls and visually evaluated for injury. […]
MEASURED_METRIC: Pigweed plant response rating
// no unit, no text: just the number

// below: answered molecules
CCn1nc(C(C)(C)C)cc1C(=O)Nc1cccc2c1CCN(C1CCCC1)C2=O [Compound 66]; 0
CCOC(=O)c1cc(NC(=O)c2cc(C(C)(C)C)nn2CC)ccc1F [Compound 89]; 10
CCOC(=O)c1cc(NC(=O)c2cc(C(C)(C)C)nn2CC)ccc1OCC [Compound 95]; 100
CCN1CCc2c(NC(=O)c3cc(C(C)(C)C)nn3CC)cccc2C1=O [Compound 63]; 100
CCn1nc(C(C)(C)C)cc1C(=O)Nc1cccc(C(=O)OCCF)c1C [Compound 91]; 55
CCn1nc(C(C)(C)C)cc1C(=O)Nc1cccc(C(=O)NCC2CC2)c1 [Compound 62]; 100

Inquiry: # Pigweed plant response rating lookup, item CCn1nc(C(C)(C)C)cc1C(=O)Nc1cccc(C(=O)NC2CC2)c1 [Compound 44]
Reply text: 100

Inquiry: # Pigweed plant response rating lookup, item C=Cn1nc(C(C)(C)C)cc1C(=O)Nc1cccc(C(=O)N(CC)CC)c1 [Compound 34]
Reply text: 100
